- system-name: T1, EsCas13d, nuclease-dead (Eubacterium siraeum, UniProt B0MS50, R295A;H300A;R849A;H854A)
- T1 sequence: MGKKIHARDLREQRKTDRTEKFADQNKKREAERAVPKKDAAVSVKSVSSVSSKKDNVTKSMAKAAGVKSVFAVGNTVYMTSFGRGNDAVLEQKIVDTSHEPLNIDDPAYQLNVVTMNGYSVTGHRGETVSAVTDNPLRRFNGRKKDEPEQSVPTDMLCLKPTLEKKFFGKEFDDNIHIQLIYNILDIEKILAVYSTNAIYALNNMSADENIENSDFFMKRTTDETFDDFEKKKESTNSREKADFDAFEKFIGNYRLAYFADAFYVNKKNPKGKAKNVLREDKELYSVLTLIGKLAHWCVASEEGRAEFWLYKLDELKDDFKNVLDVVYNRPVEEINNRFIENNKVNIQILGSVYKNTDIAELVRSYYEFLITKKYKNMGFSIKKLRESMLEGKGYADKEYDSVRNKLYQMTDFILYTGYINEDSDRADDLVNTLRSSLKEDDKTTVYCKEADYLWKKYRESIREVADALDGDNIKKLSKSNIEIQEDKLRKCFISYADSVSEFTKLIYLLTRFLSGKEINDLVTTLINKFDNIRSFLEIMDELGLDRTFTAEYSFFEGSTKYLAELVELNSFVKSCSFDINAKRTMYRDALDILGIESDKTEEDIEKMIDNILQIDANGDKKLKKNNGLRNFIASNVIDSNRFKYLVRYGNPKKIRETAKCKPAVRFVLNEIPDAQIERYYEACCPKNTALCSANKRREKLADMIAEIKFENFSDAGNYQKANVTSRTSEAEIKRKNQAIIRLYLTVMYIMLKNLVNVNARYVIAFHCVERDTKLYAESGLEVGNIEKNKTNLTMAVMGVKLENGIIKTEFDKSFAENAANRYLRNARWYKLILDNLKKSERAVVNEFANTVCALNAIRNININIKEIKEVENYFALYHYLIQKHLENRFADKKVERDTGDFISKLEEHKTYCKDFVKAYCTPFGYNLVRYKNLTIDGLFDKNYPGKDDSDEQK
- protocol-details: crRNA (strand 1, pre-loaded); Mg2+; 40 mM Tris-HCl pH 7.5, 150 mM NaCl, 6 mM MgCl2, 1 mM DTT, 0.1% Tween-20, 0.2 mg/ml BSA; 25 C; 10 min per concentration, then washed
- condition-context: tags: His6-TwinStrep-SUMO cleaved; N-terminal SNAP kept (SNAP-Surface 488); label: 3' end held by stalled T7 RNA polymerase
// NB: equality with 20 nM counts as criterion not met; only Kd strictly below is criterion met

Would you please look over these solved cases?
binder	assigned-class
target 1 insC 3' of 13,insU 3' of 4 (mixed) RNA 1: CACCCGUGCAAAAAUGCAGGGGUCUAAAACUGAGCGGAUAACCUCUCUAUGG RNA 2: GGGAAUGGAUCCACAUCUACGAAUUCGUACCAUAGAGAGCGUUAUCCGCUUCACCGAGAUCGGAAGAGCACACGU	criterion met
target 2 MT 5'PFS CGC 3'PFS UUU (mixed) RNA 1: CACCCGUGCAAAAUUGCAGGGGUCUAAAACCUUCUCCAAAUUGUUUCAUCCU RNA 2: GGGAAUGGAUCCACAUCUACGAAUUCCGCAGGAUGAAACAAUUUGGAGAAGUUUAGAUCGGAAGAGCACACGU	criterion met
target 3 A9G,U22C (mixed) RNA 1: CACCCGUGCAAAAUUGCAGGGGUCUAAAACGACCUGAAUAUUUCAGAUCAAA RNA 2: GGGAAUGGAUCCACAUCUACGAAUUCGUUCUUGAUCUGAAAUGUUCAGGUCUGCAGAUCGGAAGAGCACACGU	criterion not met
target 1 insA 3' of 7,insA 3' of 4 (mixed) RNA 1: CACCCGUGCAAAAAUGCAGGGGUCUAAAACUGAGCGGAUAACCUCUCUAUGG RNA 2: GGGAAUGGAUCCACAUCUACGAAUUCGUACCAUAGAGAGGUUAUCACGCAUCACCGAGAUCGGAAGAGCACACGU	criterion met
target 1 del3,del5 (mixed) RNA 1: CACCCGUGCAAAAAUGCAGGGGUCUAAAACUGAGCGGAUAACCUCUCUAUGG RNA 2: GGGAAUGGAUCCACAUCUACGAAUUCGUACCAUAGAGAGGUUAUCCCCACCGAGAUCGGAAGAGCACACGU	criterion met
target 1 C4U,A9C (mixed) RNA 1: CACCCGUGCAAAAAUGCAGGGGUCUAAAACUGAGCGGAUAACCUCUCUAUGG RNA 2: GGGAAUGGAUCCACAUCUACGAAUUCGUACCAUAGAGAGGUUCUCCGUUCACCGAGAUCGGAAGAGCACACGU	criterion not met

We next turn to a different binder, shown below.
Request: Regarding target 1 insG 3' of 21,insA 3' of 4 (mixed) RNA 1: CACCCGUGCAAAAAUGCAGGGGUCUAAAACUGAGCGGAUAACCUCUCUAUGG RNA 2: GGGAAUGGAUCCACAUCUACGAAUUCGUACCGAUAGAGAGGUUAUCCGCAUCACCGAGAUCGGAAGAGCACACGU , kindly confirm whether its Kd is beneath 20 nM.
Response: criterion not met
